# test.method.notes: MELAS cybrid and Rieske KO viability enhancers – cell-based, MELAS cybrids, Rieske KO mouse fibroblasts, CellTiter-Glo, primary screen (AID 1508586); further: test concentration not given here
# reported.conditions: Rieske KO mouse fibroblast survival, low glucose, CellTiter-Glo 72 h
Ranges used to classify z-score: L (below -0.2), M (-0.2 to below 0.02), H (0.02 or more)

IN: Each compound maps to one class by z-score. Which class for CC(C)C(C(=O)Nc1ccc(C(=O)NO)cc1)c1ccccc1 (stereo not given) ?
OUT: M

IN: Each compound maps to one class by z-score. Which class for Cc1ccc(S(=O)(=O)n2c(N)nc3ccccc32)cc1 ?
OUT: M

IN: Each compound maps to one class by z-score. Which class for CC1(C)CC(=O)c2sc(N3CCOCC3)nc2C1 ?
OUT: M

IN: Each compound maps to one class by z-score. Which class for COC1=CC(=O)CC(C)[C@@]12Oc1c(Cl)c(OC)cc(OC)c1C2=O (stereo not given in full) ?
OUT: M

IN: Each compound maps to one class by z-score. Which class for CN[C@H]1[C@@H](O)[C@H](O[C@H]2[C@@H](O)[C@@H](OC3OC(CN)=CCC3N)[C@H](N)C[C@@H]2N)OC[C@@]1(C)O (stereo not given in full) ?
OUT: H

IN: Each compound maps to one class by z-score. Which class for O=C1CCCc2occ(C(=O)N3CC(=O)N(Cc4ccccc4)CC(OCc4ccccn4)C3)c21 (stereo not given) ?
OUT: L

IN: Each compound maps to one class by z-score. Which class for Cc1onc(-c2c(Cl)cccc2Cl)c1C(=O)NC1C(=O)N2C1SC(C)(C)C2C(=O)O (stereo not given) ?
OUT: M

IN: Each compound maps to one class by z-score. Which class for Cc1[nH]c2ccccc2c1C1=C(NCCc2ccc(F)cc2)C(=O)N(C)C1=O ?
OUT: H

IN: Each compound maps to one class by z-score. Which class for CC(O)[C@H]1C(=O)N2C(C(=O)OCOC(=O)C(C)(C)C)=C(SC3CN(C4=NCCS4)C3)C(C)[C@@H]12 (stereo not given in full) ?
OUT: L

IN: Each compound maps to one class by z-score. Which class for COC1C=CO[C@]2(C)Oc3c(C)c(O)c4c(O)c(c5c(nc6cc(C)ccn65)c4c3C2=O)NC(=O)C(C)=CC=CC(C)C(O)C(C)C(O)C(C)C(OC(C)=O)C1C (stereo not given in full) ?
OUT: H

IN: Each compound maps to one class by z-score. Which class for Cc1csc(SCC(=O)N2CCc3c(cc(-c4csc5ccccc45)c(=O)n3C)C2)n1 ?
OUT: H

IN: Each compound maps to one class by z-score. Which class for CN1CCN(c2ncnc3sccc23)CC1=O ?
OUT: L

IN: Each compound maps to one class by z-score. Which class for COC(=O)c1c(NC(=O)c2ccoc2)c2cc(NC3CCSCC3)cnc2n1CC(C)C ?
OUT: L

IN: Each compound maps to one class by z-score. Which class for CC(=O)OCC(=O)[C@@]1(O)CC[C@H]2[C@@H]3CCC4=CC(=O)CC[C@]4(C)C3(F)[C@@H](O)C[C@@]21C (stereo not given in full) ?
OUT: L

IN: Each compound maps to one class by z-score. Which class for CCN(CC)S(=O)(=O)c1cc(C(=O)Nc2ccccc2C(=O)O)ccc1Br ?
OUT: H

IN: Each compound maps to one class by z-score. Which class for NCc1c[nH]c(=S)n1C1CCc2c(F)cc(F)cc2C1 (stereo not given) ?
OUT: M

IN: Each compound maps to one class by z-score. Which class for OCCN1CC(O)C(O)C(O)C1CO (stereo not given) ?
OUT: H

IN: Each compound maps to one class by z-score. Which class for COCCn1c(C(=O)OC)c(NC(=O)c2ccco2)c2cc(NC3CCc4ccccc4C3)cnc21 (stereo not given) ?
OUT: L

IN: Each compound maps to one class by z-score. Which class for CC(CS)C(=O)N1CCCC1C(=O)O (stereo not given) ?
OUT: L
